Reported Replicate_2 values follow for various compounds
# tgt: SARS-CoV-2 3CLpro (Severe acute respiratory syndrome coronavirus 2, UniProt P0DTD1)
# assayName: biochemical
# Assay type: biochemical
# Design: unit not given here
# conditions: sheet LOPAC_screen_w_protease; LOPAC1280 primary screen with protease, 5 µM compound; replicate 2
quantityKind: Replicate_2

[[record]]
compound = "O=S(=O)(O)C1CCNCC1 [Piperidine-4-sulphonic acid]"
quantitykind = "Replicate_2"
testresult = 3.743

[[record]]
compound = "CCN(CCCl)Cc1ccccc1Br.Cl [DSP-4 hydrochloride]"
quantitykind = "Replicate_2"
testresult = 6.142

[[record]]
compound = "CN1C[C@H](O)[C@@H](O)[C@H](O)[C@H]1CO [N-Methyl-1-deoxynojirimycin]"
quantitykind = "Replicate_2"
testresult = 4.597

[[record]]
compound = "CC1Cc2cc3c(cc2C(c2ccc(N)cc2)=NN1)OCO3.Cl (stereo not drawn) [GYKI 52895]"
quantitykind = "Replicate_2"
testresult = 5.7079

[[record]]
compound = "CC(COc1ccc(/C=C/c2ccccc2)cc1)[N+](C)(C)C.[I-] (stereo not drawn)"
quantitykind = "Replicate_2"
testresult = 3.926

[[record]]
compound = "O=C(O)/C=C/C(=O)O.O=C(O)/C=C/C(=O)O.O=C(O)/C=C/C(=O)O.O=C1CCCN1CC#CCN1CCCC1.O=C1CCCN1CC#CCN1CCCC1 [Oxotremorine sesquifumarate salt]"
quantitykind = "Replicate_2"
testresult = 5.5586

